Molecular target: T1, hOX40-EC-His (human, UniProt P43489 29-214)
T1 construct: extracellular domain; bought protein; also called recombinant human OX40 antigen protein; human OX40 extracellular segment antigen; not shown: 6 His label
T1 sequence (looked up): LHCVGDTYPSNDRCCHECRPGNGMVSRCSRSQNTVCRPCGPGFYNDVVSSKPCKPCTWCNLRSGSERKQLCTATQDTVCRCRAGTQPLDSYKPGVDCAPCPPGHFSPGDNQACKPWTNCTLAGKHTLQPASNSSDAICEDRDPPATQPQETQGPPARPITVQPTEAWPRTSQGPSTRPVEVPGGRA
Test: ELISA, supernatant diluted 50 times, coated OX40 (CK60)
PROPERTY_MEASURED: 450 nm light absorption

BINDER	TEST_VALUE
23C4-1-5 (antibody, V domains shown, hybridoma antibody, tested as culture supernatant) VH: QVQLQESGPGLVKPSGTLSLTCAVSGGSISSSNWWSWVRQPPGKGLEWIGEIYHSGSTTYNPSLKSRVTISVDKSKSQISLKLTSVTAADTAVYYCARGDVLLWFGGRGTLVTVSS VL: EIVLTQSPGTLSLSPGERASLSCRASQSVSSNYLAWYQQKPGQTPRLLIYGASIRATGIPDRFSGSGSGTDFTLIISRLEPEDFAVYYCQQYSSSPITFGQGTRLEIKR	2.63 OD450

Cited source for all entries: patent US20240209104A1
